- test-details: yeast display, Sf9 membrane polyspecificity reagent, FACS + sequencing; frameworks hold sequencing errors

>  <seq-string>
QVQLVESGGGLVQAGASLRLSCAASGYTLDNYAMGWYRQAPWKERELVAGITFSGGSTFYADSVKGRFTISRDNAKNTVYLQMNRLKPEDTAVYYCAAEAEFQADHKYGYWGQGTQVTVSS

>  <polyreactivity (PSR sort gate)>
low polyreactivity

$$$$
>  <seq-string>
QVQLVESGGGLVQAGGSLRLSCAASGRTFHWYAMGWYRQAPGKERELVAAIRYSAGSTYYADSVKGRFTISRDNAKNTVYLQMNSLKPEDTAVYYCAAEPYPYGPYYFLWLRYDYWGQGTQVTVSS

>  <polyreactivity (PSR sort gate)>
low polyreactivity

$$$$
>  <seq-string>
QVQLVESGGGLVHAGGSLRLSCAASGRTFRNNAMVWYRQAPGKEREWVAAITSGGSTNYADSVKGRFTISRDNAKNPVYLQMISLKPEDTGVYYCAKDFWYVTGGWSSGMDYWGQGTQVTVSS

>  <polyreactivity (PSR sort gate)>
low polyreactivity

$$$$
>  <seq-string>
QVQLVESGGGIVQAGGSLRLSCAASGFTFDYNTMGWYRQAPGKERELVAAISWSGGSTYYADSVKGRFTISRDNAKNTVYLQMNSLKPEDTAVYYCAAAWSYRYELYYCGQGTQVTVSS

>  <polyreactivity (PSR sort gate)>
low polyreactivity

$$$$
>  <seq-string>
QVQLVESGGGLVQAGGSLRLSCAASGRTFTFYAMGWYRQAPGKERELVAAITWSGGSTYYADSVKGRFTISRDNAKNTVYLQRNSLKPEDTAVYYCAKLDVISDDLDYWGQGTQVTVSS

>  <polyreactivity (PSR sort gate)>
low polyreactivity

$$$$
>  <seq-string>
QVQLVESGGGLVQEGGSLRLSCAASGSTFTPYAMGWYRQAPGKERELVAGITGNGGSTRYADSVKGRFTISRDNEKNTVYLQMKSLKTEDSAVYYCAARWTRQRYRTSYYAWGQGTQVTVSS

>  <polyreactivity (PSR sort gate)>
high polyreactivity

$$$$
>  <seq-string>
QVQLVESVGGLVQAGGSLRLSCAASGSIFADYAMGWYRQAPGKERELVAAMTGSGGRTYYADSVKGRFTISRDNAKNTVYLHMNSLKPEDTAVYYCAAYQVGWDPYPRYDYWGQGTQVTVSS

>  <polyreactivity (PSR sort gate)>
low polyreactivity

$$$$
>  <seq-string>
QVQLVESGGGLVQAGGSLRLSCAASGSTFYRYTMGWYRQAPGKERELVAAITRSSGSTYYADSVKGRFTISRDNEKNTVYLQMNCLKPEDTAVYYCAAYVGGDRGFDYWGQGTQVTVSS

>  <polyreactivity (PSR sort gate)>
high polyreactivity

$$$$
>  <seq-string>
QVQLVESGGGLVQAGGSLRLSCAASGNAMGWYRQAPGKERDLVAAITRRGGSTYYADSVKGRFTISRDNAKNTVYLQMNSLKPEDTAVYYCAADNPSYNLWYGYWGQGTQVTVSS

>  <polyreactivity (PSR sort gate)>
low polyreactivity

$$$$
>  <seq-string>
QVQLVESGGGLVQAGGSLRLSCAASGFIFTDYAMGWYIQAPGKERELVAGISGSGGRTYYADSVKGRFTISRDNAKNTVYLQMNSLKPEDTAVYYCAARGVPWLWYFRGMYWGQGTQVTVSS

>  <polyreactivity (PSR sort gate)>
high polyreactivity

$$$$
>  <seq-string>
QVQLVESGGGLVQAGGSLRLSCAASGITFGRNTMGWYRQAPRKERELVAAIDSGGNTYADSVKGRFTISRDNAKNTVYLQMNSLKPEDTAVYYCAVDGGEFSSYGYWGQGTQVTVSS

>  <polyreactivity (PSR sort gate)>
low polyreactivity

$$$$
